Field: TGI. Provide a value for each of the compounds that follow.
- Tested on: M19-MEL melanoma
- PROCEDURE SUMMARY: NCI tumour cell line growth inhibition, 48 h

O=C(Nc1ccccc1)c1c(O)[nH]c(=S)[nH]c1=O; 118 µM
COC(=O)c1ccccc1NC(=O)C(=O)Cc1nc2c3c(ccc2[nH]c1=O)C(=O)c1ccccc1C3=O; 23.9 µM
COc1cc2ccnc([C@@H](OC(=O)c3ccccc3)c3ccc(OC)c(OC)c3OC)c2cc1OC; > 100 µM

Respectfully, I request TGI for each entry included below.
1. CCN(CC)CCSc1c2ccccc2nc2cc(NCC(=O)Nc3ccccc3-c3ccccc3NC(=O)CNc3ccc4c(SCCN(CC)CC)c5ccccc5nc4c3)ccc12
2. Cc1cc(NS(=O)(=O)c2ccc(Nc3c4ccccc4nc4c(C(=O)N5CCN(CCOS(C)(=O)=O)CC5)cccc34)cc2)no1
3. CNC(=S)OCCC(C)CCCC(C)C (configuration not stated)
4. CN(C)N=Nc1ccc(C(N)=O)cc1
5. O=C(CC(=O)c1cccc2ccccc12)C(=O)Nc1ccc(Cl)cc1
6. Cc1c(O)c(O)cc[n+]1C1OC(CO)C(O)C1O (configuration not stated)
7. Cc1cnc(NCCCN(C)C)c2c1[nH]c1ccc3cc(O)ccc3c12

Out:
1. > 54.7 µM
2. > 100 µM
3. 34.9 µM
4. > 100 µM
5. > 100 µM
6. > 100 µM
7. 1.25 µM

Please state TGI for every compound in the list that follows.
1. COC(=O)/C(C#N)=C1\NC(=O)c2ccccc21
2. COC(=O)C1(C(C)C)CCc2c(OC)ccc(OC)c2C1=O (configuration not stated)

Out:
> 100 µM
> 100 µM

Origin of the recorded values: PubChem BioAssay (NCI)
